# measured.target: Avi-KRAS G12R (1-169) GppNHp/RAF1 RBD-3xFLAG (52-151) (Homo sapiens, UniProt P01116, G12R)
# Construct: Avi-KRAS G12R (1-169)
# Sequence (P01116 1-169 isoform P01116-2 G12R): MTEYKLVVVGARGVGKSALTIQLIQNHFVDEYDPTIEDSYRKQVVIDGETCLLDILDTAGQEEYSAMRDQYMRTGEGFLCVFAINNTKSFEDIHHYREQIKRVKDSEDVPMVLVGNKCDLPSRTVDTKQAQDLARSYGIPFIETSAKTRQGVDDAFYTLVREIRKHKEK
# procedure.text: Raf1-KRAS G12R-GppNHP disruption HTRF assay (Biological Example 1)
# Type: binding
# cond: KRAS G12R, GppNHp-loaded; Table 11
Catalogue of IC50 values

Consider the worked cases shown below.
{"compound": "CN(c1nc(OC[C@@]23CCCN2C[C@H](F)C3)nc2c(F)c(-c3ccc(F)c4sc(N)c(C#N)c34)c(C(F)(F)F)cc12)C1CC(F)(F)C1 [Compound 162]", "meas.value": "0.1 to 1 µM"}
{"compound": "N#Cc1c(N)sc2c(F)ccc(-c3c(C(F)(F)F)cc4c(N5CC6(CC6)C5)nc(OC[C@@]56CCCN5C[C@H](F)C6)nc4c3F)c12 [Compound 204]", "meas.value": "1 to 10 µM"}

// fetch IC50 for CC(=O)N(C)[C@@H]1CCN(c2nc(OC[C@@]34CCCN3C[C@H](F)C4)nc3c(F)c(-c4ccc(F)c5sc(N)c(C#N)c45)c(C(F)(F)F)cc23)C1 [Compound 207] ; system: Avi-KRAS G12R (1-169) GppNHp/RAF1 RBD-3xFLAG (52-151) (Homo sapiens, UniProt P01116, G12R)
0.1 to 1 µM

Data provenance: patent US20260042764A1
